Target: rat RXFP2 (Rattus norvegicus, UniProt F7EMH8)
Sequence (F7EMH8 20-737): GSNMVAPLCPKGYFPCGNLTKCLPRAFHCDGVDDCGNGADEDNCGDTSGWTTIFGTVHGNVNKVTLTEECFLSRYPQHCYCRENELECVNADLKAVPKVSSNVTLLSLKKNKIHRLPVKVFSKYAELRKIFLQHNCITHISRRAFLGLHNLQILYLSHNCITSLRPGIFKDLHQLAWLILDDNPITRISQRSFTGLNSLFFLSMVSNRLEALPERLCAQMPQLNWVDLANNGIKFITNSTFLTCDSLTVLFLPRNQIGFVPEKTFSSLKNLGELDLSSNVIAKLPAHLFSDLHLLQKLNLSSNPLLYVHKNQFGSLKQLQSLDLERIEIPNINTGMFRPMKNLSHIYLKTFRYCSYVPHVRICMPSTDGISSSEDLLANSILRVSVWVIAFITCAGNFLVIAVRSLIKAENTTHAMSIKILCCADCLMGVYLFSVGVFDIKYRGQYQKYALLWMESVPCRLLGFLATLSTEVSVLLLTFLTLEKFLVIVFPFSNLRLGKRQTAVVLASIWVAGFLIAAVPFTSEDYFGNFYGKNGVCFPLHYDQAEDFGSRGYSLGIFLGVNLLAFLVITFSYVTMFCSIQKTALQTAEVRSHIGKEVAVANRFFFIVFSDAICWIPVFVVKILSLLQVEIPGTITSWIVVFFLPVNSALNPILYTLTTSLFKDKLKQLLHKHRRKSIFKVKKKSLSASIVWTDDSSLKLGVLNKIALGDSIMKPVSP
Assay: INSL3-stimulated cAMP assay in HEK293 stably expressing rat RXFP2;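 also: cAMP measured with an HitHunter kit in 384-well plates, 11-point dose–response curves up to 1 µM antibody, four-parameter variable-slope fit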
Details: INSL3 EC80-stimulated cAMP, stable expression; N = 2
List of HEK293-rat RXFP2 cAMP % Max Response values.
Answer format: numeric, % implied, no suffix.

molecule	HEK293-rat RXFP2 cAMP % Max Response, %
4H1: RXFP2 monoclonal antibody from hybridoma, recombinantly expressed in a rat IgG2b backbone (antibody, V domains shown) VH: QIQLVQSGPELKKPGETVKISCKTSGYTFTKYPMHWVKQAPGEGLKWMGWINTYSGLPTFADDFKGRFAFSLETSANTADLQINNLKNEDMATYFCAREGKKLSGYFDYWGQGTTLTVSS VL: DIKMTQSPSSMYASLGERVTITCKASQDINSYLTWFQQKPGQSPKTLIYRANRFVDGVPSRFSGSGSGQDYSLTITSLEYEDMGIYYCLQYDEFPYTFGGGTQLEIK	69.7

Here is the next item to consider.
In: Please give the documented HEK293-rat RXFP2 cAMP % Max Response of 3G4: RXFP2 monoclonal antibody from hybridoma, recombinantly expressed in a rat IgG2b backbone (antibody, V domains shown) VH: QVQLKESGPGLVAPSQSLSITCTVSGFSLTSYGVSWVRQPPGKGLEWLGVIWGDGSTNYHSALISRLSISKDNSKSQVFLKLNSLQTDDTATYYCAKSLGYYAMDYWGQGTSVTVSS VL: DIQMTQSPASLSVSVGETVTITCRASENIYSNLVWYQQKQGKSPQLLVYAATNLAEGVPSRFSGSGSGTQYSLKINSLQSEDFGSYYCQHFWGPPWTFGGGTKLEIK
Out: 83.3
